Cited source for all entries: PubChem BioAssay AID1159580

test: chemical genetic growth profiling, strain panel (AID 1159580);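 further: tested at 20 µM; growth read once vehicle control cultures reached saturation at 30 °C; 1 = growth at the plate median or of vehicle wells; lower values mean less growth of the strain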; settings: S. cerevisiae deletion strains, growth OD, locus YPR167C, strain met16, stronger effect = lower value
The whole screen tested about 5,500 compounds, of which about 2,000 (36%) were called active. About 18% were inconclusive and are not listed. This is one part of the list.
Below, each of the molecules is paired with its reported normalized growth value.

molecule	normalized growth
CC1=CC(=O)C2C(C)(C)CCC[C@]2(C)[C@@]1(O)CCc1ccoc1 (stereo partly drawn)	0.972 (inactive)
CC(=O)O[C@@H]1CC2C(C)(C)CCC[C@]2(C)C2CC[C@]3(C)C(=CC(=O)O[C@H]3c3ccoc3)[C@@]21C (stereo partly drawn)	0.998 (inactive)
COC1=CC(C)[C@@H]2C[C@H]3OC(=O)C[C@H]4C(C)=C(OC)C(=O)C([C@@]34C)[C@@]2(C)C1=O (stereo partly drawn)	1 (inactive)

---

assay: chemical genetic growth profiling, strain panel (AID 1159580);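 further: tested at 20 µM; growth read once vehicle control cultures reached saturation at 30 °C; 1 = growth at the plate median or of vehicle wells; lower values mean less growth of the strain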; details: S. cerevisiae deletion strains, growth OD, locus YLR384C, strain iki3, stronger effect = lower value
Out of some 5,500 compounds screened, about 2,000 (36%) were called active. Not shown: some 18% with an inconclusive outcome. The list shows a part of the results.
I'd appreciate it if you marked entries Fulfilled when normalized growth is lower than 1 and Not fulfilled when it is not.

molecule	label.class
Cc1c(C(N)=O)cc([N+](=O)[O-])cc1[N+](=O)[O-]	Not fulfilled
CCC(=O)OCC(=O)C1(OC(=O)CC)C(C)CC2C3C(Cl)CC4=CC(=O)C=CC4(C)C3C(O)CC21C (centres undefined)	Not fulfilled
COC1=CC(C)[C@@H]2C[C@H]3OC(=O)C[C@H]4C(C)=C(OC)C(=O)C([C@@]34C)[C@@]2(C)C1=O (some centres undefined)	Fulfilled
COc1nc(NC(C)C)nc(NC(C)C)n1	Not fulfilled

---

experiment: chemical genetic growth profiling, strain panel (AID 1159580);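 further: tested at 20 µM; growth read once vehicle control cultures reached saturation at 30 °C; 1 = growth at the plate median or of vehicle wells; lower values mean less growth of the strain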; details: S. cerevisiae deletion strains, growth OD, locus YAL013W, strain DEP1, stronger effect = lower value
Among all 5,500 compounds or so, about 2,000 (36%) were called active. Inconclusive results (about 18%) are left out. Some of the results follow.

compound	normalized growth
COc1cc(NC(=S)N2CCN(c3ccccc3OC)CC2)c(OC)cc1Cl	1.01
NC[C@H]1O[C@H](OC2[C@@H](N)C[C@@H](N)[C@H](O[C@H]3O[C@H](CO)[C@@H](O)[C@H](N)[C@H]3O)[C@H]2O)[C@H](O)[C@@H](O)[C@@H]1O (stereo not given in full)	0.997
COC(=O)NC(=S)Nc1ccccc1NC(=S)NC(=O)OC	1
COc1nc(NC(C)C)nc(NC(C)C)n1	1.01
O=C1NCN(c2ccccc2)C12CCN(CCCC(c1ccc(F)cc1)c1ccc(F)cc1)CC2	1.01

---

assay: chemical genetic growth profiling, strain panel (AID 1159580);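 further: tested at 20 µM; growth read once vehicle control cultures reached saturation at 30 °C; 1 = growth at the plate median or of vehicle wells; lower values mean less growth of the strain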; conditions: S. cerevisiae deletion strains, growth OD, locus YPL078C, strain atp4, stronger effect = lower value
In all, about 5,500 compounds went through this assay and about 2,000 (36%) were called active. Inconclusive results (about 18%) are left out. Some of the results follow.
Below, each of the compounds is paired with its reported normalized growth value.
recorded.endpoint: normalized growth

compound	val
O=C(O)CCc1nc(-c2ccccc2)c(-c2ccccc2)o1	0.972
COC(=O)NC(=S)Nc1ccccc1NC(=S)NC(=O)OC	0.989
O=C(Oc1cccc2cccnc12)c1ccccc1	0.878
Cc1ncc(CO)c(CO)c1O	1.02
O=c1c2cc(O)c(O)cc2oc2cc(O)c(C3O[C@H](CO)[C@H](O)[C@@H](O)[C@H]3O)c(O)c12 (stereo not given in full)	0.969
CC1=CC(=O)C(C(C)C)=CC1=O	0.912
C[N+]1(C)C[C@H](O)[C@H](C(=O)[O-])C1	1
CC1(C)C(O)CC(=O)C2(C)C1CC(O)C1(C)C2CCC2(C)C(c3ccoc3)OC(=O)C3OC321 (stereo not given)	1.01
CC1(C)[C@@H]2CC[C@@]1(C)C(=O)C2	0.966
CCCc1nc(C)c2c(=O)[nH]c(-c3cc(S(=O)(=O)N4CCN(CC)CC4)ccc3OCC)nn12	0.97
C=CCSSCC=C	1.01
C[C@@H]1CC[C@@]23CCC4(C)[C@@](C=CC5[C@@]6(C)CCC(=O)C(C)(C)C6CC[C@]54C)(OC2=O)C3[C@H]1C (stereo not given in full)	1.01
NC(=O)c1ccccc1O	0.94
CC(=O)O[C@@H]1CC2C(C)(CC[C@H](O)C2(C)C)C2CC[C@]3(C)C(=CC(=O)O[C@H]3c3ccoc3)C21C (stereo not given in full)	0.988
COC(=O)CC1C(C)(C)C(OC(C)=O)[C@@H]2[C@@H](OC(C)=O)[C@]34O[C@@]2(O)[C@]1(C)C3CC[C@]1(C)C4=CC(=O)O[C@H]1c1ccoc1 (stereo not given in full)	1
CC(=O)O[C@@H]1c2c(ccc3ccc(=O)oc23)OC(C)(C)[C@@H]1OC(=O)CC(C)C	0.93
CC(C)(C)NCC(O)COc1cccc2c1CCCC2=O (stereo not given)	1
COC1=CC(C)[C@@H]2C[C@H]3OC(=O)C[C@H]4C(C)=C(OC)C(=O)C([C@@]34C)[C@@]2(C)C1=O (stereo not given in full)	0.996
CCCCC(=O)O[C@]1(C(=O)CO)[C@@H](C)CC2C3CCC4=CC(=O)C=C[C@]4(C)[C@@]3(F)C(O)C[C@@]21C (stereo not given in full)	0.927
O=C(O)C1=CC(=C(c2ccc(O)c(C(=O)O)c2)c2ccc(O)c(C(=O)O)c2)C=CC1=O	0.982
COc1cc(C(=O)N2CCOCC2)cc(OC)c1OC	0.982
CC(=O)Oc1ccccc1C(=O)Oc1ccccc1C(=O)O	0.998
CCC(=O)OCC(=O)[C@@]1(OC(=O)CC)[C@@H](C)CC2C3CCC4=CC(=O)C=C[C@]4(C)C3(F)[C@@H](O)C[C@@]21C (stereo not given in full)	0.996
NC[C@H]1O[C@H](OC2[C@@H](N)C[C@@H](N)[C@H](O[C@H]3O[C@H](CO)[C@@H](O)[C@H](N)[C@H]3O)[C@H]2O)[C@H](O)[C@@H](O)[C@@H]1O (stereo not given in full)	0.992
O=C(Oc1ccccc1C(=O)O)c1ccccc1O	0.962
NC(=O)c1cc([N+](=O)[O-])cc([N+](=O)[O-])c1	1.01
CCCc1nn(C)c2c(=O)[nH]c(-c3cc(S(=O)(=O)N4CCN(C)CC4)ccc3OCC)nc12	0.994
CC(C)Nc1nc(Cl)nc(NC(C)C)n1	0.999
Cc1ccccc1N1C(=O)c2cc(S(N)(=O)=O)c(Cl)cc2NC1C (stereo not given)	0.957
CC1(C)S[C@@H]2[C@H](NC(=O)C(C(=O)O)c3ccccc3)C(=O)N2[C@H]1C(=O)O (stereo not given in full)	1.01
